Recorded Activity relative to diclofenac sodium values for a group of compounds are listed next.
Tested on: carrageenan-induced rat paw edema
Test: carrageenan-induced rat paw edema anti-inflammatory activity
Type: in vivo, albino rats of Wistar strain
Conditions: rat, oral dose 10 mg/kg; diclofenac sodium = 100
measure name: Activity relative to diclofenac sodium

{"compound": "NC(=O)Nc1ccc(-c2cc(-c3ccc(OCc4ccccc4)cc3)n(-c3ccc(Br)cc3)n2)cc1 [Compound 3g]", "measured target": "carrageenan-induced rat paw edema", "endpoint result": 90.56}
{"compound": "NC(=O)Nc1ccc(-c2cc(-c3ccc(OCc4ccccc4)cc3)n(-c3cccc(Cl)c3)n2)cc1 [Compound 3b]", "measured target": "carrageenan-induced rat paw edema", "endpoint result": 95.52}
{"compound": "NC(=O)Nc1ccc(-c2cc(-c3ccc(OCc4ccccc4)cc3)n(-c3ccc(Cl)cc3)n2)cc1 [Compound 3c]", "measured target": "carrageenan-induced rat paw edema", "endpoint result": 99.03}
{"compound": "NC(=O)Nc1ccc(-c2cc(-c3ccc(OCc4ccccc4)cc3)n(-c3ccc(Cl)c(Cl)c3)n2)cc1 [Compound 3d]", "measured target": "carrageenan-induced rat paw edema", "endpoint result": 76.17}
{"compound": "NC(=O)Nc1ccc(-c2cc(-c3ccc(OCc4ccccc4)cc3)n(-c3ccc([N+](=O)[O-])cc3)n2)cc1 [Compound 3h]", "measured target": "carrageenan-induced rat paw edema", "endpoint result": 83.67}
{"compound": "NC(=O)Nc1ccc(-c2cc(-c3ccc(OCc4ccccc4)cc3)n(-c3ccc(F)cc3)n2)cc1 [Compound 3e]", "measured target": "carrageenan-induced rat paw edema", "endpoint result": 88.50}
{"compound": "NC(=O)Nc1ccc(-c2cc(-c3ccc(OCc4ccccc4)cc3)n(-c3ccccc3Cl)n2)cc1 [Compound 3a]", "measured target": "carrageenan-induced rat paw edema", "endpoint result": 93.23}
{"compound": "O=C(O)Cc1ccccc1Nc1c(Cl)cccc1Cl [Diclofenac sodium, diclofenac sodium, reference compound]", "measured target": "carrageenan-induced rat paw edema", "endpoint result": 100}

---

Target: p38α MAPK (Homo sapiens)
Sequence (Q16539 whole entry): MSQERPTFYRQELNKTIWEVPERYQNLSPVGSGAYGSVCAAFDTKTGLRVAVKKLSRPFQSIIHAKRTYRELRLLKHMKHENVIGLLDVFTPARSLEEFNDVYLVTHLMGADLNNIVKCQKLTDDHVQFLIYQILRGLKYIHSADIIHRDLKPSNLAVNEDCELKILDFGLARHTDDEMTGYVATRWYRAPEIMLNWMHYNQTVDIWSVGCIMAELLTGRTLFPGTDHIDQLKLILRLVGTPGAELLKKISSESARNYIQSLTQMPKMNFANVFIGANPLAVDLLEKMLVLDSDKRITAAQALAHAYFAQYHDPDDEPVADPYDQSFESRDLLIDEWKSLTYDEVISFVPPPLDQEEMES
measure name: IC50 (nM)

{"smiles structure": "NC(=O)Nc1ccc(-c2cc(-c3ccc(OCc4ccccc4)cc3)n(-c3ccc(F)c(Cl)c3)n2)cc1", "measure name": "IC50", "unit symbol": "nM", "endpoint result": 110}
{"smiles structure": "Cc1ccc(-n2nc(-c3ccc(NC(N)=O)cc3)cc2-c2ccc(OCc3ccccc3)cc2)cc1", "measure name": "IC50", "unit symbol": "nM", "endpoint result": 169}
{"smiles structure": "COc1ccccc1-n1nc(-c2ccc(NC(N)=O)cc2)cc1-c1ccc(OCc2ccccc2)cc1", "measure name": "IC50", "unit symbol": "nM", "endpoint result": 206}
{"smiles structure": "NC(=O)Nc1ccc(-c2cc(-c3ccc(OCc4ccccc4)cc3)n(-c3ccccc3Cl)n2)cc1", "measure name": "IC50", "unit symbol": "nM", "endpoint result": 39}
{"smiles structure": "NC(=O)Nc1ccc(-c2cc(-c3ccc(OCc4ccccc4)cc3)n(-c3ccc([N+](=O)[O-])cc3)n2)cc1", "measure name": "IC50", "unit symbol": "nM", "endpoint result": 67}
{"smiles structure": "Cc1cccc(-n2nc(-c3ccc(NC(N)=O)cc3)cc2-c2ccc(OCc3ccccc3)cc2)c1", "measure name": "IC50", "unit symbol": "nM", "endpoint result": 210}
{"smiles structure": "Cc1cccc(C)c1-n1nc(-c2ccc(NC(N)=O)cc2)cc1-c1ccc(OCc2ccccc2)cc1", "measure name": "IC50", "unit symbol": "nM", "endpoint result": 270}

---

Test system: gastric mucosa (ulcerogenic potential)
Experiment: ulcerogenic test
Format: in vivo
Conditions: rats, oral dose of 30 mg/kg, mean±SEM, n=6
measure name: Severity index

{"compound": "NC(=O)Nc1ccc(-c2cc(-c3ccc(OCc4ccccc4)cc3)n(-c3ccc(F)cc3)n2)cc1 [Compound 3e]", "measure name": "Severity index", "endpoint result": 0.83}
{"compound": "NC(=O)Nc1ccc(-c2cc(-c3ccc(OCc4ccccc4)cc3)n(-c3ccc([N+](=O)[O-])cc3)n2)cc1 [Compound 3h]", "measure name": "Severity index", "endpoint result": 0.91}
{"compound": "O=C(O)Cc1ccccc1Nc1c(Cl)cccc1Cl [Diclofenac sodium, diclofenac sodium, reference compound]", "measure name": "Severity index", "endpoint result": 1.83}
{"compound": "NC(=O)Nc1ccc(-c2cc(-c3ccc(OCc4ccccc4)cc3)n(-c3ccc(Br)cc3)n2)cc1 [Compound 3g]", "measure name": "Severity index", "endpoint result": 0.75}

---

IC50, p38α MAPK (Homo sapiens, UniProt Q16539), per-entry values.

{"smiles structure": "Cc1ccccc1-n1nc(-c2ccc(NC(N)=O)cc2)cc1-c1ccc(OCc2ccccc2)cc1", "IC50, nM": 123}
{"smiles structure": "NC(=O)Nc1ccc(-c2cc(-c3ccc(OCc4ccccc4)cc3)n(-c3ccc(F)cc3)n2)cc1", "IC50, nM": 48}
{"smiles structure": "NC(=O)Nc1ccc(-c2cc(-c3ccc(OCc4ccccc4)cc3)n(-c3ccc([N+](=O)[O-])cc3[N+](=O)[O-])n2)cc1", "IC50, nM": 112}
{"smiles structure": "COc1ccc(-n2nc(-c3ccc(NC(N)=O)cc3)cc2-c2ccc(OCc3ccccc3)cc2)cc1", "IC50, nM": 170}
{"smiles structure": "NC(=O)Nc1ccc(-c2cc(-c3ccc(OCc4ccccc4)cc3)n(-c3ccc(Cl)c(Cl)c3)n2)cc1", "IC50, nM": 79}

---

Test system: gastric mucosal tissue
Experiment: lipid peroxidation in the gastric mucosa
Format: in vivo
Details: rats, mean±SEM, n=6
Marks after values point to notes of the source that are not given here.

{"compound": "NC(=O)Nc1ccc(-c2cc(-c3ccc(OCc4ccccc4)cc3)n(-c3ccc(F)cc3)n2)cc1", "measured target": "gastric mucosal tissue", "Lipid peroxidation": "6.08±0.15 nmol MDA/100 mg tissue"}
{"compound": "O=C(O)Cc1ccccc1Nc1c(Cl)cccc1Cl [Diclofenac sodium, diclofenac sodium, reference compound]", "measured target": "gastric mucosal tissue", "Lipid peroxidation": "6.52±0.42 nmol MDA/100 mg tissue"}
{"compound": "NC(=O)Nc1ccc(-c2cc(-c3ccc(OCc4ccccc4)cc3)n(-c3cccc(Cl)c3)n2)cc1", "measured target": "gastric mucosal tissue", "Lipid peroxidation": "5.19±0.48 ^b nmol MDA/100 mg tissue"}
{"compound": "NC(=O)Nc1ccc(-c2cc(-c3ccc(OCc4ccccc4)cc3)n(-c3ccc(Cl)cc3)n2)cc1", "measured target": "gastric mucosal tissue", "Lipid peroxidation": "5.12±0.55 ^b nmol MDA/100 mg tissue"}
{"compound": "NC(=O)Nc1ccc(-c2cc(-c3ccc(OCc4ccccc4)cc3)n(-c3ccccc3Cl)n2)cc1", "measured target": "gastric mucosal tissue", "Lipid peroxidation": "5.47±0.44 ^b nmol MDA/100 mg tissue"}
{"compound": "NC(=O)Nc1ccc(-c2cc(-c3ccc(OCc4ccccc4)cc3)n(-c3ccc(Br)cc3)n2)cc1", "measured target": "gastric mucosal tissue", "Lipid peroxidation": "6.02±0.17 ^a nmol MDA/100 mg tissue"}
